Test system: Yersinia pseudotuberculosis
Experiment: growth AUC normalised to DMSO control (fraction of control); higher = less growth inhibition, active = hit call of the paper
Settings: 20 µM
Structures can show the parent of a compound that is named as a salt.
MEASURED_ATTRIBUTE: growth AUC normalised to DMSO control

COMPOUND	RECORDED_VALUE
NS(=O)(=O)c1cc2c(cc1Cl)N=CNS2(=O)=O [Chlorothiazide]	1.01
CCCC(=O)Nc1ccc(OCC(O)CNC(C)C)c(C(C)=O)c1 (stereo not drawn) [Acebutolol hydrochloride]	1.01
CC(C)[N+](C)(CCOC(=O)C1c2ccccc2Oc2ccccc21)C(C)C [Propantheline bromide]	1
NC(=O)c1cc[n+](CC2=C(C(=O)[O-])N3C(=O)[C@@H](NC(=O)[C@@H](c4ccccc4)S(=O)(=O)O)[C@H]3SC2)cc1 [Cefsulodin sodium salt]	0.865
CCCCC(C)(O)C/C=C/[C@H]1[C@H](O)CC(=O)[C@@H]1CCCCCCC(=O)OC (mixture of isomers) [Misoprostol]	1.01
COc1cc(C(=O)OCCCN2CCCN(CCCOC(=O)c3cc(OC)c(OC)c(OC)c3)CC2)cc(OC)c1OC [Dilazep dihydrochloride]	0.989
CNCCC=C1c2ccccc2CCc2ccccc21 [Nortriptyline hydrochloride]	0.992
C=C1/C(=C\C=C2/CCC[C@]3(C)[C@@H]([C@H](C)/C=C/[C@@H](O)C4CC4)CC[C@@H]23)C[C@@H](O)C[C@@H]1O [Calcipotriene]	0.977
CCCc1nn(C)c2c(=O)[nH]c(-c3cc(S(=O)(=O)N4CCN(C)CC4)ccc3OCC)nc12 [Sildenafil]	1.03
COC1=CC(=O)C[C@@H](C)[C@]12Oc1c(Cl)c(OC)cc(OC)c1C2=O [Griseofulvin]	1.03
c1ccc2c(c1)CCCC2C1=NCCN1 (stereo not drawn) [Tetrahydrozoline hydrochloride]	0.996
COc1ccc(Cl)cc1C(=O)NCCc1ccc(S(=O)(=O)NC(=O)NC2CCCCC2)cc1 [Glibenclamide]	1.01
Cc1cc(N)c2ccccc2[n+]1CCCCCCCCCC[n+]1c(C)cc(N)c2ccccc21 [Dequalinium dichloride]	0.932
C[C@H](N)[C@H](O)c1cccc(O)c1 [Metaraminol bitartrate]	1.01
COc1ccc(C(=O)c2ccccc2O)c(O)c1 [Dioxybenzone]	0.982
O=c1n(CCCN2CCN(c3cccc(Cl)c3)CC2)nc2ccccn12 [Trazodone hydrochloride]	0.984
Nc1ccn([C@@H]2O[C@H](CO)[C@@H](O)[C@@H]2O)c(=O)n1 [Cytarabine]	0.986
COc1ccc2[nH]cc(CCNC(C)=O)c2c1 [Melatonin]	0.992
COc1cc(-c2ccc(=O)[nH]n2)ccc1OC(F)F [Zardaverine]	0.998
CS(=O)(=O)c1ccc(C2=C(c3ccccc3)C(=O)OC2)cc1 [Rofecoxib]	0.995
CCN1CCC[C@H]1CNC(=O)c1c(O)c(Cl)cc(Cl)c1OC [Raclopride]	0.951
O=C1NCC2(CCN(CCc3ccccc3)CC2)O1 [Fenspiride hydrochloride]	0.971
COC(=O)Nc1nc2cc(C(=O)c3ccc(F)cc3)ccc2[nH]1 [Flubendazol]	0.994
c1ccc(CNc2ncnc3nc[nH]c23)cc1 [Aminopurine, 6-benzyl]	1.01
CC[C@@H](CO)NCCN[C@@H](CC)CO [Ethambutol dihydrochloride]	1.01
CNC1(C)C2CCC(C2)C1(C)C (stereo not drawn) [Mecamylamine hydrochloride]	1.02
Cc1c(OCC(F)(F)F)ccnc1C[S+]([O-])c1nc2ccccc2[nH]1 (stereo not drawn) [Lansoprazole]	0.994
Cc1nc2ccccn2c(=O)c1CCN1CCC(C(=O)c2ccc(F)cc2)CC1 [Pirenperone]	1
CN1C(C(=O)Nc2ccccn2)=C(O)c2sccc2S1(=O)=O [Tenoxicam]	0.993
CC(=O)OCC(=O)[C@@]1(OC(C)=O)[C@@H](C)C[C@H]2[C@@H]3C[C@H](F)C4=CC(=O)C=C[C@]4(C)[C@@]3(F)[C@@H](O)C[C@@]21C [Diflorasone Diacetate]	1.01
CCC(=O)O[C@]1(C(=O)SCF)[C@H](C)C[C@H]2[C@@H]3C[C@H](F)C4=CC(=O)C=C[C@]4(C)[C@@]3(F)[C@@H](O)C[C@@]21C [Fluticasone propionate]	1
CNCCCN1c2ccccc2CCc2ccccc21 [Desipramine hydrochloride]	0.986
CCCCc1oc2ccccc2c1C(=O)c1cc(I)c(OCCN(CC)CC)c(I)c1 [Amiodarone hydrochloride]	1.02
